Assay: Level of 25HC3S in blood and tissues after administration (Example 1A, FIG. 3)
Type: in vivo, mice
Settings: female, mouse; blood, FIG. 3A; read-out: half life in circulation (converted)
measurement-label: half-life

In: Request the reported half-life associated with C[C@H](CCCC(C)(C)O)[C@H]1CC[C@H]2[C@@H]3CC=C4C[C@@H](OS(=O)(=O)O)CC[C@]4(C)[C@H]3CC[C@]12C [25HC3S, 5-cholesten-3, 25-diol, 3-sulfate]
Out: ~30 h
